Data provenance: patent US20260109721A1

test system: HepG2 cell line; assay: In vitro toxicity study on HepG2 cell line (resazurin, viability and IC50); assay type: cell-based, human; conditions: HepG2 cells, 6.25 μM lipid, 48 h post-treatment, resazurin, relative to ethanol vehicle controls
Please respond with reported Viability (%) at different lipid concentrations, mean for every item in the list.
# do not omit the unit; it follows the number

Reported Viability (%) at different lipid concentrations, mean ( CCCCCCCC/C=C\CCCCCCCC(OCCCCCCCCCCCCCCCC)O[Si](C)(C)OCCCCCCN(CCO)CCO (stereo not drawn) ) = 105.1%

The recorded Viability (%) at different lipid concentrations, mean for entry CCCCC/C=C\C/C=C\CCCCCCCCOC(CCCCCCC/C=C\C/C=C\CCCCC)O[Si](C)(C)OCCCCCCN(C)CCCCO (stereo not drawn) equals 100.0%

Lab note: measured Viability (%) at different lipid concentrations, mean of CCCCCCCC/C=C\CCCCCCCCOC(=O)C(C)(C)CCC(OCCCCCCCC/C=C\CCCCCCCC)O[Si](C)(C)OCCCCCCN1CCOCC1 (stereo not drawn) was 102.8%

Value of measured Viability (%) at different lipid concentrations, mean for the entry CCCCCCCC/C=C\CCCCCCCCOC(=O)C(C)(C)CC(OCCCCCCCC/C=C\CCCCCCCC)O[Si](C)(C)OCCCCCCN1CCCC1CO (stereo not drawn) : 101.5%

The molecule listed as CCCCCCCC/C=C\CCCCCCCCOC(=O)C(C)(C)CC(OCCCCCCCC/C=C\CCCCCCCC)O[Si](C)(C)OCCCCCCN(CCO)CCO (stereo not drawn) shows Viability (%) at different lipid concentrations, mean equal to 87.8%

Viability (%) at different lipid concentrations, mean measured on CCCCC/C=C\C/C=C\CCCCCCCCOC(CCCCCCC/C=C\C/C=C\CCCCC)O[Si](C)(C)OCCCCCCN(C)CC(O)CO (stereo not drawn) = 97.3%

====

Assign Viability (%) at different lipid concentrations, mean to each entry below.
system: HepG2 cell line; assay: In vitro toxicity study on HepG2 cell line (resazurin, viability and IC50); assay type: cell-based, human; conditions: HepG2 cells, 25 μM lipid, 48 h post-treatment, resazurin, relative to ethanol vehicle controls
Quick reminder: number only, in %, skip the unit.

Looking up CCCCCCCC/C=C\CCCCCCCC(OCC(CCCCCCCC)SCCCCC)O[Si](C)(C)OCCCCCCN(CCO)CCO (stereo not drawn) [Example 72] , I found its Viability (%) at different lipid concentrations, mean recorded as 102.5

Looking up CCCCCCCCCCCCCCCCOC(CCCCCCCCCCCCCCC)O[Si](C)(C)OCCCCCCN(CCO)CCO (stereo not drawn) [Example 49] , I found its Viability (%) at different lipid concentrations, mean recorded as 100.4

Briefly, Viability (%) at different lipid concentrations, mean measured for CCCCCCCCO[Si](C)(C)O[Si](C)(C)OC(CCCCCCC)OCCCCCCN(C)CCN(C)CCN(C)CCCCCCOC(CCCCCCC)O[Si](C)(C)O[Si](C)(C)OCCCCCCCC (stereo not drawn) [Example 83] : 100.30

Reported Viability (%) at different lipid concentrations, mean ( CCCCCCCC/C=C\CCCCCCCC(OCCC(C)CCCC(C)CCCC(C)CCCC(C)C)O[Si](C)(C)OCCCCCCN(CCO)CCO (stereo not drawn) [Example 75] ) = 105.7

Field Viability (%) at different lipid concentrations, mean (entry CCCCCCCC/C=C\CCCCCCCCOC(=O)C(C)(C)CC(OCCCCCCCC/C=C\CCCCCCCC)O[Si](C)(C)OCCCCCCN(CCO)CCO (stereo not drawn) [Example 84] ) reads 101.8

Value of Viability (%) at different lipid concentrations, mean reported for the compound CCCCC/C=C\C/C=C\CCCCCCCCOC(CCCCCCC/C=C\C/C=C\CCCCC)O[Si](C)(C)OCCCCCCN(C)CCO (stereo not drawn) [Example 56] is 96.5

====

Can you tell me PDI for the items I'm about to list?
assay: LNP size, PDI and zeta potential by Dynamic Light Scattering (Method A); type: physicochemical; settings: LNP formulated with the lipid, DLS
Lab note: record just the number, no unit beside it.

// PDI lookup, compound = CCCCCCCC/C=C\CCCCCCCCOC(=O)C(C)(C)CCC(OCCCCCCCC/C=C\CCCCCCCC)O[Si](C)(C)OCCCCCCN1CCOCC1 (stereo not shown) , result: 0.15

The value of PDI measured for the compound CCCCCCCCC(CCCCCC)C(=O)OCCCCCCN(CCCCO)CCCCCCOC(=O)C(CCCCCC)CCCCCCCC (stereo not shown) [ALC-0315, reference compound] turned out to be 0.007

PDI measured on CCCCCCCC/C=C\CCCCCCCCOC(=O)C(C)(C)CC(OCCCCCCCC/C=C\CCCCCCCC)O[Si](C)(C)OCCCCCCN(C)CCO (stereo not shown) = 0.15

get_value(item= CCCCC/C=C\C/C=C\CCCCCCCCOC(CCCCCCC/C=C\C/C=C\CCCCC)O[Si](C)(C)OCCCCCCN(CCO)CCN(CCO)CCCCCCO[Si](C)(C)OC(CCCCCCC/C=C\C/C=C\CCCCC)OCCCCCCCC/C=C\C/C=C\CCCCC (stereo not shown) , readout=PDI) returns 0.103

Sure, the documented PDI for CCCCC/C=C\C/C=C\CCCCCCCC(OCCCCCCCC/C=C\CCCCCCCC)O[Si](C)(C)OCCCCCCN(CCO)CCO (stereo not shown) is 0.043

In plain terms, CCCCCCCC/C=C\CCCCCCCCOC(CCCCCCCCCCCCCCC)O[Si](C)(C)OCCCCCCN(CCO)CCO (stereo not shown) has a documented PDI of 0.031

Lookup result for CCCCCCCC/C=C\CCCCCCCC(OCCCCCCCCCCCCCCC(C)C)O[Si](C)(C)OCCCCCCN(CCO)CCO (stereo not shown) ; measured PDI: 0.2

Reported PDI ( CCCCC/C=C\C/C=C\CCCCCCCCOC(CCCCCCC/C=C\C/C=C\CCCCC)O[Si](C)(C)OCCCCCCN(CCO)CCO (stereo not shown) ) = 0.052

According to the records, this compound CCCCC/C=C\C/C=C\CCCCCCCCO[Si](C)(C)OC(CCCCCCC/C=C\C/C=C\CCCCC)OCCCCCCN(CCO)CCO (stereo not shown) displays PDI of 0.020

Lab book: PDI of CCCCC/C=C\C/C=C\CCCCCCCCOC(CCCCCCC/C=C\C/C=C\CCCCC)O[Si](C)(C)OCCCCCCN(CCCCO)CCCCO (stereo not shown) noted as 0.13

// CCCCC/C=C\C/C=C\CCCCCCCCOC(CCCCCCC/C=C\C/C=C\CCCCC)O[Si](C)(C)OCCCCCCN1CCN(CCO)CC1 (stereo not shown) : PDI value = 0.011

Value of PDI reported for the compound CCCCCCCC/C=C\CCCCCCCCOC(=O)C(C)(C)CC(OCCCCCCCC/C=C\CCCCCCCC)O[Si](C)(C)OCCCCCCN(C)CCCCO (stereo not shown) is 0.17

// field: PDI; key: CCCCCCCC/C=C\CCCCCCCCOC(=O)C(C)(C)CC(OCCCCCCCC/C=C\CCCCCCCC)O[Si](C)(C)OCCCCCCN(C)CC(O)CO (stereo not shown) ; value = 0.23

====

Test system: HepG2 cell line
Test: In vitro toxicity study on HepG2 cell line (resazurin, viability and IC50)
Assay type: cell-based, human
Settings: HepG2 cells, 100 μM lipid, 48 h post-treatment, resazurin, relative to ethanol vehicle controls
Description: The synthesized lipids were tested in term of in vitro transfection efficacy and toxicity on HeLa cells. In order to perform the mentioned biological tests, appropriate LNPs had to be formulated from the synthesized lipids. The formulation technique was different in Method A and B. The particle size, polydispersity index (PDI) and zeta potential of resulting LNPs were determined by means of Dynamic Light Scattering technique (DLS). […]
Assign Viability (%) at different lipid concentrations, mean to each entry below.
Quick reminder: number only, in %, skip the unit.

Item: CCCCCCCC/C=C\CCCCCCCCOC(=O)C(C)(C)CCC(OCCCCCCCC/C=C\CCCCCCCC)O[Si](C)(C)OCCCCCCN1CCOCC1 (stereo not drawn) | Viability (%) at different lipid concentrations, mean: 98.8

Entry under test: CCCCCCCC/C=C\CCCCCCCCOC(CC[C@@H](C)C1CCC2C3CCC4C[C@H](OC)CC[C@]4(C)C3CC[C@@]21C)O[Si](C)(C)OCCCCCCN(CCO)CCO (stereo partly drawn) . Its Viability (%) at different lipid concentrations, mean was 109.9

Lab note: CCCCCCCC/C=C\CCCCCCCCOC(=O)C(C)(C)CC(OCCCCCCCC/C=C\CCCCCCCC)O[Si](C)(C)OCCCCCCN(CCO)CCO (stereo not drawn) gave Viability (%) at different lipid concentrations, mean of 103.5

Memo: CCCCC/C=C\C/C=C\CCCCCCCCOC(CCCCCCC/C=C\C/C=C\CCCCC)O[Si](C)(C)OCCCCCCN(C)Cc1cn(C2[C@H](O)O[C@H](CO)[C@@H](O)[C@@H]2O)nn1 (stereo partly drawn) , reported Viability (%) at different lipid concentrations, mean: 117.6

For record CCCCC/C=C\C/C=C\CCCCCCCCOC(CCCCCCC/C=C\C/C=C\CCCCC)O[Si](C)(C)OCCCCCCN1CCCCC1CO (stereo not drawn) the listed Viability (%) at different lipid concentrations, mean is 97.8

Form field Viability (%) at different lipid concentrations, mean, entry CCCCC/C=C\C/C=C\CCCCCCCCOC(CCCCCCC/C=C\C/C=C\CCCCC)O[Si](C)(C)OCCCCCCN(C)CCO (stereo not drawn) : 99.7

Record summary for CCCCCCCC/C=C\CCCCCCCCOC(=O)C(C)(C)CC(OCCCCCCCC/C=C\CCCCCCCC)O[Si](C)(C)OCCCCCCN1CCCC1CO (stereo not drawn) : reported Viability (%) at different lipid concentrations, mean = 105.8

Summary for this compound, CCCCCCCC/C=C\CCCCCCCCOC(=O)C(C)(C)CC(OCCCCCCCC/C=C\CCCCCCCC)O[Si](C)(C)OCCCCCCN(CCCCO)CCCCO (stereo not drawn) : Viability (%) at different lipid concentrations, mean is 95.4

Value of measured Viability (%) at different lipid concentrations, mean for the entry C#CCN(C)CCCCCCO[Si](C)(C)OC(CC(C)(C)C(=O)OCCCCCCCC/C=C\CCCCCCCC)OCCCCCCCC/C=C\CCCCCCCC (stereo not drawn) : 98.9

Notebook: CCCCC/C=C\C/C=C\CCCCCCCCOC(CCCCCCC/C=C\C/C=C\CCCCC)O[Si](C)(C)OCCCCCCN1CCOCC1 (stereo not drawn) , Viability (%) at different lipid concentrations, mean read as 94.1

Per the record, CCCCC/C=C\C/C=C\CCCCCCCCO[Si](C)(C)OC(CCCCCCC/C=C\C/C=C\CCCCC)OCCCN(C)C (stereo not drawn) has Viability (%) at different lipid concentrations, mean of 96.68

// field: Viability (%) at different lipid concentrations, mean; key: CCCCCCCC/C=C\CCCCCCCCOC(=O)C(C)(C)CC(OCCCCCCCC/C=C\CCCCCCCC)O[Si](C)(C)OCCCCCCN(CCCO)CCCO (stereo not drawn) ; value = 77.4

In plain terms, CCCCCCCC/C=C\CCCCCCCCOC(=O)C(C)(C)CC(OCCCCCCCC/C=C\CCCCCCCC)O[Si](C)(C)OCCCCCCN(C)CCCCO (stereo not drawn) has a documented Viability (%) at different lipid concentrations, mean of 103.1

Entry CCCCCCCC/C=C\CCCCCCCCOC(=O)C(C)(C)CC(OCCCCCCCC/C=C\CCCCCCCC)O[Si](C)(C)OCCCCCCN1CCCCC1 (stereo not drawn) ; Viability (%) at different lipid concentrations, mean = 97.6

// recorded Viability (%) at different lipid concentrations, mean for CCCCC/C=C\C/C=C\CCCCCCCCOC(CCCCCCC/C=C\C/C=C\CCCCC)O[Si](C)(C)OCCCCCCN(C)CC(O)CO (stereo not drawn) : 76.9

// sample CCCCC/C=C\C/C=C\CCCCCCCCOC(CCCCCCC/C=C\C/C=C\CCCCC)O[Si](C)(C)OCCCCCCN(C)CCCCO (stereo not drawn) , its Viability (%) at different lipid concentrations, mean was 117.1

According to the records, this compound CCCCC/C=C\C/C=C\CCCCCCCCOC(CCCCCCCCCCCCCCC)O[Si](C)(C)OCCCCCCN(CCO)CCO (stereo not drawn) displays Viability (%) at different lipid concentrations, mean of 114.9

CCCCC/C=C\C/C=C\CCCCCCCCOC(CCCCCCC/C=C\C/C=C\CCCCC)O[Si](C)(C)OCCCCCCN1CCCC1CO (stereo not drawn) yielded Viability (%) at different lipid concentrations, mean of 94.8

Reported Viability (%) at different lipid concentrations, mean for CCCCC/C=C\C/C=C\CCCCCCCCO[Si](C)(C)OC(CCCCCCC/C=C\C/C=C\CCCCC)OCCCCCCN(CCO)CCO (stereo not drawn) was 109.7

Data point: CCCCCCCCCCCOC(=O)CCCCCN(CCO)CCCCCCCC(=O)OC(CCCCCCCC)CCCCCCCC [SM-102, reference compound] ; Viability (%) at different lipid concentrations, mean = 21.2

# Viability (%) at different lipid concentrations, mean (compound: CCCCC/C=C\C/C=C\CCCCCCCCOC(CCCCCCC/C=C\C/C=C\CCCCC)O[Si](C)(C)OCCCCCCN1CCN(CCO)CC1 (stereo not drawn) ) is 104.1

Viability (%) at different lipid concentrations, mean recorded for this compound, CCCCC/C=C\C/C=C\CCCCCCCCOC(CCCCCN(C)CC(O)CO)O[Si](C)(C)OCCCCCCCC/C=C\C/C=C\CCCCC (stereo not drawn) , is 94.2

Lookup result for CCCCC/C=C\C/C=C\CCCCCCCCOC(CCCCCCC/C=C\C/C=C\CCCCC)O[Si](C)(C)OCCCCCCN(C)[C@H](CO)Cc1ccccc1 (stereo partly drawn) ; measured Viability (%) at different lipid concentrations, mean: 100.6

Lookup result for CCCCC/C=C\C/C=C\CCCCCCCCOC(CCCCCCC/C=C\C/C=C\CCCCC)O[Si](C)(C)OCCCCCCN(CCO)CCN(CCO)CCCCCCO[Si](C)(C)OC(CCCCCCC/C=C\C/C=C\CCCCC)OCCCCCCCC/C=C\C/C=C\CCCCC (stereo not drawn) ; measured Viability (%) at different lipid concentrations, mean: 93.09
